- System: Saccharomyces cerevisiae
- Protocol: protein stability index of tFT-peptide fusion (C-terminal peptide) (PSI (0-1 scale)); higher = more stable (slower turnover)
- Particulars: genetic background: das1 deletion; temperature: 30 C
Here the recorded protein stability index is given for each entry.

{"Sequence input": "NRFGVLPDDVEE [ECM1 C-terminal 12 aa]", "Assayed system": "Saccharomyces cerevisiae", "protein stability index": 0.714}
{"Sequence input": "PHYKPRDGSQVE [SPT4 C-terminal 12 aa]", "Assayed system": "Saccharomyces cerevisiae", "protein stability index": 0.69}
{"Sequence input": "GGNLPQGYFYTQ [GTS1 C-terminal 12 aa]", "Assayed system": "Saccharomyces cerevisiae", "protein stability index": 0.707}
{"Sequence input": "ASVIPGGCLGNL [ZPS1 C-terminal 12 aa]", "Assayed system": "Saccharomyces cerevisiae", "protein stability index": 0.703}
{"Sequence input": "SMKPFKRRKPFF [PRP16 C-terminal 12 aa]", "Assayed system": "Saccharomyces cerevisiae", "protein stability index": 0.69}
{"Sequence input": "KLTIRIKQKTHL [YOR316C-A C-terminal 12 aa]", "Assayed system": "Saccharomyces cerevisiae", "protein stability index": 0.702}
{"Sequence input": "AADRDNKKDEST [XRN1 C-terminal 12 aa]", "Assayed system": "Saccharomyces cerevisiae", "protein stability index": 0.698}
{"Sequence input": "GLEFHDVEDRIA [PEX18 C-terminal 12 aa]", "Assayed system": "Saccharomyces cerevisiae", "protein stability index": 0.705}
{"Sequence input": "WDFKKQGFASRD [PDA1 C-terminal 12 aa]", "Assayed system": "Saccharomyces cerevisiae", "protein stability index": 0.696}
{"Sequence input": "QLMYEQDDEEVP [HAP3 C-terminal 12 aa]", "Assayed system": "Saccharomyces cerevisiae", "protein stability index": 0.718}
{"Sequence input": "MKGYGFEVPSAN [COX17 C-terminal 12 aa]", "Assayed system": "Saccharomyces cerevisiae", "protein stability index": 0.698}
{"Sequence input": "QETAISVAKLFK [RPT6 C-terminal 12 aa]", "Assayed system": "Saccharomyces cerevisiae", "protein stability index": 0.684}
{"Sequence input": "RSNAERKRRSPL [PBP2 C-terminal 12 aa]", "Assayed system": "Saccharomyces cerevisiae", "protein stability index": 0.712}
{"Sequence input": "EHTMLAKAQGHD [XPT1 C-terminal 12 aa]", "Assayed system": "Saccharomyces cerevisiae", "protein stability index": 0.71}
{"Sequence input": "AKPAYHWQTRYR [KIN3 C-terminal 12 aa]", "Assayed system": "Saccharomyces cerevisiae", "protein stability index": 0.703}
{"Sequence input": "LLLSAFLRNLVP [YAL016C-A C-terminal 12 aa]", "Assayed system": "Saccharomyces cerevisiae", "protein stability index": 0.685}
{"Sequence input": "GIVRHLIDSVKL [ACS1 C-terminal 12 aa]", "Assayed system": "Saccharomyces cerevisiae", "protein stability index": 0.695}

* * *

- Test system: Saccharomyces cerevisiae
- Protocol: protein stability index of tFT-peptide fusion (C-terminal peptide) (PSI (0-1 scale)); higher = more stable (slower turnover)
- Particulars: genetic background: wild type; temperature: 30 C
Note to self: values exactly at 0.7 are y. So protein stability index at or above 0.7 is y, below is n.

{"Sequence input": "PGPPSPPPPLYP", "Assigned label": "n"}
{"Sequence input": "SSNVVLYHSCSQ", "Assigned label": "n"}
{"Sequence input": "HEDIPGSTYTIN", "Assigned label": "y"}

Source listed as the supplement of paper PMC10724198.
